The reader will find reported Ratio Ki values listed item by item below.
species: Homo sapiens; assay: Selectivity ratio of Ki for human CB1 receptor expressed in CHO membranes to Ki for human CB2 receptor expressed in CHO membranes; assay type: cell membranes

Provide measured Ratio Ki value, entry: "CCCOc1ccccc1-c1cc(C(=O)NC23CC4CC(CC(C4)C2)C3)no1"
> 12

Provide measured Ratio Ki value, entry: "CCCCCOc1ccccc1-c1cc(C(=O)NC23CC4CC(CC(C4)C2)C3)no1"
> 83

Provide measured Ratio Ki value, entry: "CCCCCOc1ccccc1-c1cc(C(=O)NC2CCC2)no1"
> 2

Provide measured Ratio Ki value, entry: "CCCCCOc1ccccc1-c1cc(C(=O)NC2CCCCCCC2)no1"
> 40

Provide measured Ratio Ki value, entry: "COc1ccccc1-c1cc(C(=O)NC23CC4CC(CC(C4)C2)C3)no1"
> 42

---

pKi: −log10 of the molar value.
Test system Cannabinoid receptor 1 (Homo sapiens, UniProt P21554), pKi listed for each of the compounds.

The cases that follow already have their pKi on record.
CCCCCOc1ccccc1-c1cc(C(=O)NC23CC4CC(CC2C4)C3)no1 | < 6.00
CCCCCOc1ccccc1-c1cc(C(=O)NC2CCC2)no1 | < 6.00
CCCCCOc1ccccc1-c1cc(C(=O)NC2CCCCCCC2)no1 | < 5.52
CCCCCOc1ccccc1-c1cc(C(=O)NC2CCCCC2)no1 | < 5.52
CCCOc1ccccc1-c1cc(C(=O)NC23CC4CC(CC(C4)C2)C3)no1 | < 6.00

Provide measured pKi value, entry: CCCCCOc1ccccc1-c1cc(C(=O)NC2C3CC4CC(C3)CC2C4)no1 (stereo not given)
< 5.52

Provide measured pKi value, entry: "CCCCCCOc1ccccc1-c1cc(C(=O)NC23CC4CC(CC(C4)C2)C3)no1"
< 5.52

Provide measured pKi value, entry: "CCCCCOc1ccccc1-c1cc(C(=O)N(CC(C)C)CC(C)C)no1"
7.48

Provide measured pKi value, entry: "CCCCCOc1ccccc1-c1cc(C(=O)NC23CC4CC(CC(C4)C2)C3)no1"
< 5.52

Provide measured pKi value, entry: "CCCCCOc1ccccc1-c1cc(C(=O)NC2CCCC2)no1"
< 6.00

---

Test system Cannabinoid receptor 2 (Homo sapiens, UniProt P34972), pKi listed for each of the compounds.
pKi: −log10 of the molar value.

Provide pKi, recorded with Cannabinoid receptor 2 (Homo sapiens, UniProt P34972), of "CCCCCCCCOc1ccccc1-c1cc(C(=O)NC23CC4CC(CC(C4)C2)C3)no1"
Sequence (P34972 whole entry): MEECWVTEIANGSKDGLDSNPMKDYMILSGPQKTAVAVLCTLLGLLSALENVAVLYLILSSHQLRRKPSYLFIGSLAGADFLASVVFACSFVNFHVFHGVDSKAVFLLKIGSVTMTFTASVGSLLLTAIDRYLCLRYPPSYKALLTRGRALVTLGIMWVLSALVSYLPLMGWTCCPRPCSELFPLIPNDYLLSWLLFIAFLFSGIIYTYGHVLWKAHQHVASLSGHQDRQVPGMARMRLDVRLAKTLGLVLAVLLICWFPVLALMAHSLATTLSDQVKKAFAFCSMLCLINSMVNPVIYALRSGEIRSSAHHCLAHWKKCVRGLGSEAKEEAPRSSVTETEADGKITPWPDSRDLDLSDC
< 6.00

Provide pKi, recorded with Cannabinoid receptor 2 (Homo sapiens, UniProt P34972), of "CCCCCOc1ccccc1-c1cc(C(=O)NCc2ccccc2)no1"
< 5.52

Provide pKi, recorded with Cannabinoid receptor 2 (Homo sapiens, UniProt P34972), of "O=C(NC12CC3CC(CC(C3)C1)C2)c1cc(-c2ccccc2)on1"
< 6.00

Provide pKi, recorded with Cannabinoid receptor 2 (Homo sapiens, UniProt P34972), of "CCCCCOc1ccccc1-c1cc(C(=O)Nc2nnc(C)s2)no1"
< 5.52

Provide pKi, recorded with Cannabinoid receptor 2 (Homo sapiens, UniProt P34972), of "CCCCCOc1ccccc1-c1cc(C(=O)NC2CC2)no1"
< 6.00

Provide pKi, recorded with Cannabinoid receptor 2 (Homo sapiens, UniProt P34972), of "CCCCCOc1ccccc1-c1cc(C(=O)Nc2cccc3ccccc23)no1"
< 6.00

Provide pKi, recorded with Cannabinoid receptor 2 (Homo sapiens, UniProt P34972), of "O=C(NCC12CC3CC(CC(C3)C1)C2)c1cc(-c2ccccc2)on1"
< 6.00

Provide pKi, recorded with Cannabinoid receptor 2 (Homo sapiens, UniProt P34972), of O=C(NC1C2CC3CC(C2)CC1C3)c1cc(-c2ccccc2)on1 (centres undefined)
< 6.00

Provide pKi, recorded with Cannabinoid receptor 2 (Homo sapiens, UniProt P34972), of "CCCCCOc1ccccc1-c1cc(C(=O)NC2CCCCCC2)no1"
7.22

---

target: Cannabinoid receptor 2 (Homo sapiens, UniProt P34972)
The reader will find reported Ki values listed item by item below.
Could you give me the number in µM? Just the number is fine.

CCCCCOc1ccccc1-c1cc(C(=O)NN2CCCCC2)no1 | 0.6

Provide Ki, recorded with Cannabinoid receptor 2 (Homo sapiens, UniProt P34972), of "CCCCCOc1ccccc1-c1cc(C(=O)NC23CC4CC(CC(C4)C2)C3)no1"
0.036

---

target: UniProt P34972
pKi: −log10 of the molar value.
The reader will find reported pKi values listed item by item below.

Provide measured pKi value, entry: "CCOc1ccccc1-c1cc(C(=O)NC23CC4CC(CC(C4)C2)C3)no1"
< 6.00

Provide measured pKi value, entry: "CCCCCOc1ccc(-c2cc(C(=O)NC34CC5CC(CC(C5)C3)C4)no2)cc1"
< 6.00

Provide measured pKi value, entry: "CCCCCCCOc1ccccc1-c1cc(C(=O)NC23CC4CC(CC(C4)C2)C3)no1"
< 6.00
